Below, each entry is listed alongside its reported TGI.
Test system: ACHN renal
Measurement description: NCI tumour cell line growth inhibition, 48 h

The cases that follow already have their TGI on record.
# Compound, TGI
measured = [
    ("O=C1C(Br)=CC2(C=C1Br)CCNC1=C2C(=O)c2cccnc2C1=O", "48.9 µM"),
    ("COc1cccc(/C=N/[N-]C(N)=O)c1[O-].[Ni+2].[OH3+].c1cnc2c(c1)ccc1cccnc12", "> 100 µM"),
    ("CCOC(=O)CNC(=O)C(C)NC(=O)C(NC(=O)CC(c1ncc[nH]1)c1ncc[nH]1)C(C)CC (stereo not given)", "> 100 µM"),
    ("CCOC(=O)/C=C(/C(=O)OCC)n1cc(C)c(=O)n(Cc2cn(COCCOC(C)=O)nn2)c1=O", "21.6 µM"),
]

Prompt line: Consider the compound CCCNC(C#N)c1ccc(C(C#N)NCCC)cc1 (stereo not given) and give its measured TGI.
Response line: > 100 µM

Prompt line: Can you check NC(=O)C(c1ccccc1)N1CCOCC1 (stereo not given) next?
Response line: > 100 µM

Prompt line: Can you check CC(=O)OC1CC2(O)C3CCC4CC(O)CCC4(C)C3CCC2(C)C1C1=CC(=O)OC1 (stereo not given) next?
Response line: 0.147 µM

Prompt line: Can you check Fc1ccc(C2SCc3nc4ccccc4n32)cc1 (stereo not given) next?
Response line: > 100 µM

Prompt line: Can you check Cc1cc(C)c(O)c(CN(C)Cc2cc(Cl)cc(Cl)c2O)c1 next?
Response line: 24 µM

Prompt line: Can you check Cc1ccc(N2CCc3c(C)c(C#N)c4nc5ccccc5n4c32)cc1 next?
Response line: > 100 µM

Prompt line: Can you check O=C(Nc1ccccc1O)c1ccc(Oc2cccc(C(=O)Nc3ccccc3O)c2)cc1 next?
Response line: 11.9 µM

----------
Test system: SNB-75 CNS
Measurement description: NCI tumour cell line growth inhibition, 48 h
Below, each entry is listed alongside its reported TGI.
Provide the reading as a plain figure in µM.

The cases that follow already have their TGI on record.
# Molecule, Measured target, TGI, µM
records = [
    ("O=C1C=C(Br)c2c(Br)sc(Br)c21", "SNB-75 CNS", 39.7),
    ("CC(=O)O/N=C1/C(c2c(O)[nH]c3cc(Br)ccc23)=Nc2ccccc21", "SNB-75 CNS", 5.11),
    ("CC(=O)OC1CC2(O)C3CCC4CC(O)CCC4(C)C3CCC2(C)C1C1=CC(=O)OC1 (stereo not given)", "SNB-75 CNS", 0.618),
    ("CCN1c2ccccc2C(Cl)(c2ccc(N(C)C)cc2)c2ccccc21", "SNB-75 CNS", 18.2),
]

The record that follows has no TGI shown yet.
Prompt line: Consider the molecule C/C(=N\N=C(/[Se])N1CC2CCC(CC2)C1)c1ccccn1 and give its measured TGI.
Response line: 1.11

----------
Below, each entry is listed alongside its reported TGI.
System: MDA-MB-435
Measurement description: NCI tumour cell line growth inhibition, 48 h
Provide the reading as a plain figure in µM.

# Compound string, TGI / µM
measured = [
    ("COc1ccc2c(c1)C(=O)/C(=C/c1ncc([N+](=O)[O-])n1C)O2", 0.323),
    ("O=C1C=C(Br)c2c(Br)sc(Br)c21", 42.9),
]

The record that follows has no TGI shown yet.
Prompt line: Consider the molecule COc1cc(-c2nc3sc4c(c3c(=O)[nH]2)CCCCCC4)cc(OC)c1OC and give its measured TGI.
Response line: 0.611

----------
System: IGROV1 ovarian
Measurement description: NCI tumour cell line growth inhibition, 48 h
Below, each entry is listed alongside its reported GI50.

The cases that follow already have their GI50 on record.
# Compound, Quantity name, Reported result
data = [
    ("CSc1ccc2c3c(n(C[C@H](O)CO)c(=O)c2c1)-c1ccccc1C3=O", "GI50", "3.77 µM"),
    ("Cn1cc(-c2cnc3ccc4ccc(CS(=O)(=O)NCc5ccccn5)cc4c(=O)c3c2)cn1", "GI50", "22.1 µM"),
    ("Cc1ccc(-c2cc(C3=CC(=O)C=CC3=O)n(-c3ccc(S(N)(=O)=O)cc3)n2)cc1", "GI50", "> 100 µM"),
    ("O=C(N/N=C/c1ccc([N+](=O)[O-])cc1)c1ccc2nc(-c3ccc(Cl)cc3)[nH]c2c1", "GI50", "3.04 µM"),
    ("COc1ccc2c(c1)C(=O)/C(=C/c1ncc([N+](=O)[O-])n1C)O2", "GI50", "0.985 µM"),
]

Prompt line: Give recorded GI50 with IGROV1 ovarian for the following compound: CC(C)NC(=O)OCc1c(COC(=O)NC(C)C)c(-c2ccc(Cl)cc2)n2c1CCC2
Response line: 1.59 µM

Prompt line: Can you check N#CC1=C(N)NC(=O)NC12Nc1ccccc1S2 (stereo not given) next?
Response line: > 45.7 µM

Prompt line: Can you check CCCCCCCCCCCCSC(=N)N next?
Response line: 2.77 µM

Prompt line: Can you check COc1ccc(C(=O)c2cc3c(OC)c(OC)c(OC)cc3[nH]2)cc1 next?
Response line: 9.68 µM

Prompt line: Can you check O=C(Nc1ccc(Cl)cc1)c1cc(-c2ccc(Cl)cc2)c2sc(=O)[nH]c2n1 next?
Response line: 2.83 µM

----------
Tested on: HT29 colon
Measurement description: NCI tumour cell line growth inhibition, 48 h; in the data active means GI50 below about 0.43 µM; inactive means the rest
Would you mind answering with one of these outcomes? active, inactive

# Compound, Assigned label
rows = [
    ("Cc1c2c[n+](C(C)C)ccc2c(C)c2c1[nH]c1ccccc12", "inactive"),
    ("COc1ccc2c(c1)C(=O)/C(=C/c1ncc([N+](=O)[O-])n1C)O2", "active"),
    ("COc1ccccc1C#Cc1ccccc1C#CCCCCCC#Cc1ccccc1C#Cc1ccccc1OC", "inactive"),
    ("N#CC1=C(N)NC(=O)NC12Nc1ccccc1S2 (stereo unspecified)", "inactive"),
]

Prompt line: Called result for O=Nc1ccc2ccccc2c1O
Response line: inactive

Prompt line: Can you check CCN1c2ccccc2C(Cl)(c2ccc(N(C)C)cc2)c2ccccc21 next?
Response line: inactive

----------
Tested on: SN12C renal
Measurement description: NCI tumour cell line growth inhibition, 48 h
Below, each entry is listed alongside its reported TGI.

# Molecule, Measured target, Quantity name, Reported result
measured = [
    ("Cc1cc(S(=O)(=O)O)c(NC(=O)C(=O)C2C=CCS2(=O)=O)cc1Cl (stereo unspecified)", "SN12C renal", "TGI", "> 100 µM"),
    ("Cc1cn(CC2=NCC(C)(C)N2)c(=O)[nH]c1=O", "SN12C renal", "TGI", "> 100 µM"),
    ("CCOC(=O)/C=C(/C(=O)OCC)n1cc(C)c(=O)n(Cc2cn(COCCOC(C)=O)nn2)c1=O", "SN12C renal", "TGI", "59.8 µM"),
    ("c1cn2cc(-c3ccc4cn[nH]c4c3)nc(Nc3ccc(N4CCOCC4)cc3)c2n1", "SN12C renal", "TGI", "41.2 µM"),
    ("CC1=CCC23C(C1)OC(Br)(C=CC2(C)O)C3(C)C (stereo unspecified)", "SN12C renal", "TGI", "> 100 µM"),
    ("COc1cc2c(cc1O)CC13CCC(=O)N1CCc1cc(OC)c(O)c-2c13 (stereo unspecified)", "SN12C renal", "TGI", "> 68.1 µM"),
    ("O=C(NC1CCN(Cc2ccccc2)CC1)c1cc2nc(-c3ccc(Cl)s3)cc(C(F)(F)F)n2n1", "SN12C renal", "TGI", "> 100 µM"),
    ("COP(=O)(OC)C(Cc1c[nH]c2ccccc12)NC(=O)OCc1ccccc1 (stereo unspecified)", "SN12C renal", "TGI", "> 100 µM"),
]

Prompt line: Consider the molecule COC(=O)/C=C(/C(=O)OC)c1c(C)c(C)c2c(C)cc(C)cc(C)c1-2 and give its measured TGI.
Response line: > 100 µM

----------
Below, each entry is listed alongside its reported TGI.
Test system: MOLT-4 leukemia
Measurement description: NCI tumour cell line growth inhibition, 48 h

The cases that follow already have their TGI on record.
# Compound string, Measured target, TGI
rows = [
    ("NC(=S)Nc1[nH]c(=S)nc2c1SC1=N/C(=C\\c3ccco3)C(=O)N12", "MOLT-4 leukemia", "> 100 µM"),
    ("Cc1sc(/N=C/c2c[nH]c3ccccc23)c(C#N)c1C", "MOLT-4 leukemia", "> 100 µM"),
    ("COC(=O)c1cc(C#N)[nH]c1-c1ccc(C)s1", "MOLT-4 leukemia", "> 100 µM"),
    ("c1ccc2c(c1)nc(NC1CCCC1)c1[nH]c(C3CCCC3)nc12", "MOLT-4 leukemia", "> 41.7 µM"),
    ("Oc1ccc(SCc2cc(O)c(O)c(O)c2)cc1", "MOLT-4 leukemia", "> 100 µM"),
]

Prompt line: Give recorded TGI with MOLT-4 leukemia for the following compound: O=C1C=C(Br)c2c(Br)sc(Br)c21
Response line: 12.2 µM
